assay: qHTS of pediatric cancer cell lines to identify multiple opportunities for drug repurposing: Primary screen for OHS-50 cells (AID 1347103); conditions: OHS-50 osteosarcoma viability, CellTiter-Glo luminescence, 48 h; series mostly up to 57.3 µM; further: nearly all actives have a fitted effect of over 40% in size
Records with an inconclusive call do not appear. Calls of active or inactive are those of the source. The call rests on the fitted dose curve; in most records, active means well fitted cell-killing curve with a large enough effect; inconclusive means small, poorly fitted or top-dose-only effect; inactive means no such curve, though single readings can be large or run the other way.
Thanks in advance; please answer with one of these: active, inactive

Call for entry "C=CCc1cccc(C=NNC(=O)CN2CCN(Cc3ccccc3)CC2)c1O" : active

Call for entry Clc1ccc(COC(Cn2ccnc2)c2ccc(Cl)cc2Cl)c(Cl)c1 (stereo not drawn) : active

Call for entry "CCCCC[C@H](O)C=C[C@H]1[C@H](O)CC(=O)[C@H]1CC=CCCCC(=O)O" : inactive

* * *

assay: Quantitative High-Throughput drug screen in 47 multiple myeloma cell lines against the NCATS MIPE library collection: OCIMY5_PLB cell viability assay (AID 1918988); settings: OCI-MY5 myeloma viability, ATP luminescence, 48 h; series mostly up to 45.8 µM; further: potency means the concentration at half of the fitted maximal effect; nearly all actives have a fitted effect of over 65% in size
Results filed as inconclusive are left out. The source made the active and inactive calls. The call rests on the fitted dose curve; in most records, active means well fitted cell-killing curve with a large enough effect; inconclusive means small, poorly fitted or top-dose-only effect, or effect the other way; inactive means no such curve, though single readings can be large or run the other way.
measurement_type: Potency

Value of Potency reported for the compound "C[C@@H](N)c1ccc(C(=O)Nc2ccnc3[nH]ccc23)cc1" is 23.5 µM (active)

Value of Potency reported for the compound "COc1ccc2cc1Oc1ccc(cc1)C[C@H]1c3cc(c(OC)cc3CCN1C)Oc1c(OC)c(OC)cc3c1[C@H](C2)N(C)CC3" is 16.6 µM (active)

Value of Potency reported for the compound "COc1cc([C@@H]2c3cc4c(cc3[C@@H](O[C@@H]3O[C@@H]5CO[C@@H](C)O[C@@H]5[C@H](O)[C@@H]3O)[C@H]3COC(=O)[C@H]23)OCO4)cc(OC)c1O" is 14.8 µM (active)

Value of Potency reported for the compound "CN1CCC[C@H]1CCO[C@](C)(c1ccccc1)c1ccc(Cl)cc1" is 26.4 µM (active)

* * *

Answer each item with its documented max response.
Test system: KB-3-1
Assay: Cytotoxic Profiling of Annotated Libraries Using Quantitative High-Throughput Screening (AID 1296008); further: on the % scale 0 is the no-effect control and ±100 the full control effect; nearly all actives have a fitted effect of over 60% in size
Details: Five cell lines viability, CellTiter-Glo ATP luminescence, 48-72 h; stronger effect = lower value
Experimental: Cell-based phenotypic screening is a commonly used approach to discover biological pathways, novel drug targets, chemical probes and high-quality hit-to-lead molecules. […] A pintool (Kalypsys) was used to transfer 23 nL of compound solution to the 1536-well assay plates. […] Plates were left at room temperature for 10 min before imaging the ATP-coupled luminescence using a ViewLux microplate imager (PerkinElmer, Waltham, MA).
Results filed as inconclusive are left out.
The reply should be a number in %, with the unit left off.

Value of max response reported for the compound "O=C(CO)N1CCC(c2[nH]nc(-c3ccc(Cl)cc3)c2-c2ccncn2)CC1" is 6.51

Value of max response reported for the compound "CC[C@H](C=C[C@@H](C)[C@H]1CC[C@H]2[C@@H]3CC=C4C[C@@H](O)CC[C@]4(C)[C@@H]3CC[C@]12C)C(C)C" is 2.61

Value of max response reported for the compound "COc1ccc(C=CC(=O)Nc2ccccc2C(=O)O)cc1OC" is 7.16

Value of max response reported for the compound "CC(C)(F)C[C@H](N[C@@H](c1ccc(-c2ccc(S(C)(=O)=O)cc2)cc1)C(F)(F)F)C(=O)NC1(C#N)CC1" is 7.07

Value of max response reported for the compound "c1cc(OCCN2CCCCC2)cc(-c2n[nH]c3ccc(-c4ncn[nH]4)cc23)c1" is -21.9

Value of max response reported for the compound "Cc1cccc2c1CC[C@H](CN1CCC(c3c(Cl)cccc3Cl)CC1)C[C@@H]2O" is -8.1

Value of max response reported for the compound "CCC(=O)NCC[C@@H]1CCc2ccc3c(c21)CCO3" is -2.73

Value of max response reported for the compound "COc1cc2c(cc1OC)CC(=O)N(CCCN(C)C[C@H]1Cc3cc(OC)c(OC)cc31)CC2" is 6.36

Value of max response reported for the compound "O=C(O)C1=CO[C@@H](O[C@@H]2O[C@H](CO)[C@H](O)[C@H](O)[C@H]2O)[C@@H]2C(CO)=CC[C@H]12" is 7.89

Value of max response reported for the compound "N#CC(=C1Nc2ccccc2S1)c1ccnc(OCc2ccc(CN3CCOCC3)cc2)n1" is -1.84

Value of max response reported for the compound "COc1ccc(-c2cc3nccn3c(Nc3ncccc3C(N)=O)n2)cc1OC" is -9.74

Value of max response reported for the compound "FC(F)(F)c1ccc(C=Cc2nc(COc3ccc(CCCCn4ccnn4)cc3)co2)cc1" is -26.9

Value of max response reported for the compound "CNC(=O)c1cc(COc2nnc(Nc3ccc(Cl)cc3)c3ccoc23)ccn1" is -2.71

Value of max response reported for the compound CCCCCOC(=O)Nc1nc(=O)n([C@@H]2O[C@H](C)[C@@H](O)C2O)cc1F (stereo partly drawn) is -1.34

Value of max response reported for the compound "Cn1c(=O)c(Oc2ccc(F)cc2F)cc2cnc(NC3CCOCC3)nc21" is -6.47

Value of max response reported for the compound "CO[C@H]1/C=C\O[C@@]2(C)Oc3c(C)c(O)c4c(O)c(c5c(nc6cc(C)ccn65)c4c3C2=O)NC(=O)C(C)=CC=C[C@H](C)[C@H](O)[C@@H](C)[C@@H](O)[C@@H](C)[C@H](OC(C)=O)[C@H]1C" is -2.96

Value of max response reported for the compound "CO[C@H]1C=CO[C@@]2(C)Oc3c(C)c(O)c4c(O)c(c(C=NN5CCN(C)CC5)c(O)c4c3C2=O)NC(=O)C(C)=CC=C[C@H](C)[C@H](O)[C@@H](C)[C@@H](O)[C@@H](C)[C@H](OC(C)=O)[C@H]1C" is 0.835

Value of max response reported for the compound "C#CCN(C)CC1=Cc2ccccc2Oc2ccccc21" is -4.88

Value of max response reported for the compound "COc1cc(N2CCN(C)CC2)ccc1Nc1nc(N)c(C(=O)c2c(Cl)cccc2Cl)s1" is -5.11

Value of max response reported for the compound "CCOC(=O)[C@H]1O[C@H]1C(=O)N[C@@H](CC(C)C)C(=O)NCCC(C)C" is 0.158

Value of max response reported for the compound CCCCN(CCCC)CC(O)c1cc(Cl)cc2c1-c1ccc(Cl)cc1C2=Cc1ccc(Cl)cc1 (stereo not drawn) is 3.8

Value of max response reported for the compound "CC1(C)[C@H]2CC[C@]3(C)[C@@H](C(=O)C=C4[C@@H]5C[C@@](C)(C(=O)O)CC[C@]5(C)CC[C@]43C)[C@@]2(C)CC[C@@H]1O" is 1.07

Value of max response reported for the compound CN1C(=O)C(Cc2c[nH]c3ccccc23)NC1=S (stereo not drawn) is 2.81

Value of max response reported for the compound "C[C@H]1COC2=C1C(=O)C(=O)c1c2ccc2c1CCCC2(C)C" is -1.52

Value of max response reported for the compound "CN1CCC(COc2cnc(-c3cccc(Cn4nc(-c5cccc(C#N)c5)ccc4=O)c3)nc2)CC1" is -7.63

Value of max response reported for the compound CCCC1OC2C[C@@H]3[C@H]4CCC5=CC(=O)C=C[C@]5(C)[C@H]4C(O)C[C@]3(C)[C@]2(C(=O)CO)O1 (stereo partly drawn) is -2.26

Value of max response reported for the compound "CNc1nc(Nc2ccc(C(=O)N3CCOCC3)cc2OC)ncc1Cl" is -5.95

Value of max response reported for the compound "O=C1Nc2ccc(I)cc2C1=Cc1cc(Br)c(O)c(Br)c1" is 8.65
